- run description: folding stability dG unfold from chymotrypsin proteolysis; higher = more stable
value type: folding stability dG unfold

seq	value type	data value
SAGGMRIYIPPELPEEKVEEIREEAEEEFPVEVTLERFPEPGYVVLEFEGEEEELYRRIEEKIREKGSAGGS [r16_227_TrMRF]	folding stability dG unfold	1.42 kcal/mol
SAGGKTVVIEAESLEEALAAIEALPPDVKKVVIFNKETGVLVEVTVDPKTGEIKEIKVYKIDPEKGKLSAGG [r13_945_TrROS_Hall]	folding stability dG unfold	2.86 kcal/mol
SAGGMTTTTTFDGPTDEAFDLPSGVKVEPEPATGGYRVELPPGREVEVTVERSTDPGTVTWTFTFKESAGGS [r16_122_JUSTAS]	folding stability dG unfold	0.531 kcal/mol

Data request: # get_value(readout='folding stability dG unfold', item= SAGGMEVVEIKYDPETGTVTVTVAIPESLSFDEVAPEVEALVKEKTGRPVEITVDPATGTVTATVPRSAGGS [r8_314_JUSTAS] )
Data returned: 1.39 kcal/mol
